assayExplanation: P. aeruginosa biofilm formation inhibitors, primary screen, PAO1 strain, BacTiter-Glo luminescence, LB-PBS (AID 1144)
particulars: 12 h, higher = more signal
Recorded z-score by entry
metric: z-score

molecule: O=C1NC(=O)C2C1C=CC(C(O)C(c1ccccc1)c1ccccc1)N2Nc1ccc(Cl)cc1Cl (centres undefined)
readoutNumber: -0.548
--
molecule: C#CCN(Cc1ccccc1Br)C(/C=C/c1ccccc1)CO (centres undefined)
readoutNumber: 0.825
--
molecule: COc1ccc(C(=O)Nc2ccc(CN3C(=O)[C@@]4(O[C@@H](CCO)[C@H]([Si](C)(C)c5ccc(OC)cc5)[C@H]4C)c4ccccc43)cc2)cc1
readoutNumber: 0.422
--
molecule: CCOC1=C2C(CN(S(=O)(=O)c3ccc(C)cc3)C2c2ccc(C)cc2)C2C(=O)N(c3ccccc3)C(=O)C2C1 (centres undefined)
readoutNumber: -0.382

* * *

Recorded composite z-score by entry
measurementTarget: Dickkopf-related protein 1 (Homo sapiens) (UniProt O94907)
Sequence (O94907 whole entry, looked up): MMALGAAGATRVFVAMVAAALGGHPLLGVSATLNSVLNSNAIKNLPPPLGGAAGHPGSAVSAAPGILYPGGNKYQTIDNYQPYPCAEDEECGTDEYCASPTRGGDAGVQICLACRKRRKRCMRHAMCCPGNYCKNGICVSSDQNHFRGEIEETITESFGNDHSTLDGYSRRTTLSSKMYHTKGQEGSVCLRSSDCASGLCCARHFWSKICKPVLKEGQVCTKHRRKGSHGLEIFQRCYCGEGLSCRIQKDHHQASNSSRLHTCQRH
assayExplanation: DKK1 binders on small-molecule microarrays, primary screen, biochemical, small-molecule microarray, 635 nm fluorescence scan (AID 1106);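 further: score merges emission near 667 nm with signal to noise over three replicate slides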
particulars: DKK1 binding, higher = more signal
metric: composite z-score

compound: O=C1OCCC/C=C\[C@H]2OC34C=CCN(CCN5CCOCC5)C(=O)[C@H]3N(CCCO)C(=O)[C@@H]4C12 (stereo partly drawn)
metric: composite z-score
readoutNumber: -0.298
--
compound: O=C1O[C@H](c2ccccc2)[C@H](c2ccccc2)N2[C@H]1[C@@H](C(=O)O)[C@]1(C(=O)Nc3ccc(C#CCCO)cc31)[C@H]2c1ccc(O)cc1
metric: composite z-score
readoutNumber: -0.572
--
compound: COC(=O)C(CC#Cc1ccc2c(c1)[C@]1(C(=O)N2)[C@H](C(=O)O)[C@H]2C(=O)O[C@H](c3ccccc3)[C@H](c3ccccc3)N2[C@@H]1c1ccc(O)cc1)C(=O)OC
metric: composite z-score
readoutNumber: -0.685
--
compound: O=C1OCCC/C=C\[C@H]2OC34C=CCN(Cc5ccccc5)C(=O)[C@H]3N(CCCCCCO)C(=O)[C@@H]4C12 (stereo partly drawn)
metric: composite z-score
readoutNumber: -1.69
--
compound: COC(=O)[C@@]1(Cc2ccc(F)cc2)[C@H]2c3cc(C(=O)N(C)C)n(Cc4ccc(S(C)(=O)=O)cc4)c3C[C@H]2CN1C(=O)c1ccccc1
metric: composite z-score
readoutNumber: -0.0071
--
compound: CCOC(=O)[C@H]1C/C=C/C[C@H](C(=O)OCC)C(=O)O[C@H]2[C@@H](OC)O[C@H](CO)[C@@H](OC(=O)Nc3ccc(C#N)cc3)[C@@H]2OC1=O
metric: composite z-score
readoutNumber: -0.255
--
compound: O=C1OCC=C[C@H]2OC34C=CCN(CCN5CCOCC5)C(=O)[C@H]3N(CCCO)C(=O)[C@@H]4[C@@H]12 (stereo partly drawn)
metric: composite z-score
readoutNumber: 0.163
--
compound: CC(C)N1C(=O)[C@@]2(Cc3ccccc31)c1ccccc1C(=O)N(C1CCCCC1)[C@H]2c1ccc(CO)cc1
metric: composite z-score
readoutNumber: 0.788
--
compound: O=C1O[C@H](c2ccccc2)[C@H](c2ccccc2)N2[C@H]1[C@@H](C(=O)N1CCN(c3ncccn3)CC1)[C@]1(C(=O)Nc3ccc(C#CC4=CCCCC4)cc31)[C@H]2c1ccc(O)cc1
metric: composite z-score
readoutNumber: -0.0441
--
compound: CCCCCC1=C2CNC(CCC)(C(=O)OC)C=C2C(C)C1=O (stereo not drawn)
metric: composite z-score
readoutNumber: -0.793
--
compound: C=CCOC(=O)[C@@H]1[C@H]2C(=O)O[C@H](c3ccccc3)[C@H](c3ccccc3)N2[C@H](c2ccc(OCCOC(=O)[C@@H]3C[C@@H]4C(=O)N[C@@H](Cc5ccccc5)C(=O)N4[C@@H]3c3ccc(O)cc3)cc2)[C@@]12C(=O)Nc1ccc(I)cc12
metric: composite z-score
readoutNumber: 1.03
--
compound: [N-]=[N+]=Nc1ccccc1C[C@]1(C(N)=O)N=C(c2ccc(OCCCO)cc2)O[C@H]1c1ccccc1
metric: composite z-score
readoutNumber: -0.748
--
compound: Cc1ccc(S[C@]2(C(=O)NCCN3CCOCC3)CC(=O)N(Cc3ccccc3)[C@@H]2c2ccc(CO)cc2I)cc1
metric: composite z-score
readoutNumber: -1.51
